meta.source: ChEMBL document CHEMBL3885881

# Organism: Rattus norvegicus
# Measurement description: DrugMatrix - Regimen: Daily Repeat
# Assay type: toxicity, organism-based, Sprague-Dawley
# Parameters: regimen Daily Repeat, gender Male, age 6-8 weeks
# Condition summary: in vivo, po, 1500 mg/kg, 72 h, tissue Blood, route oral GAVAGE, dose level High, time 3 day, vehicle .5 % CMC
Could you please report measured ABSOLUTE EOSINOPHIL for the items listed next?

In: I am curious: what ABSOLUTE EOSINOPHIL value has been reported for C[C@@H](O)[C@H]1C(=O)N2C(C(=O)O)=C(S[C@@H]3CN[C@H](C(=O)N(C)C)C3)[C@H](C)[C@H]12 ?
Out: 214 CELLS/uL

In: I am curious: what ABSOLUTE EOSINOPHIL value has been reported for CCOC(=O)[C@H](CCc1ccccc1)N[C@@H](C)C(=O)N1CCC[C@H]1C(=O)O ?
Out: 63.67 CELLS/uL

In: Which ABSOLUTE EOSINOPHIL value is on record for Nc1nc2c(c(=O)[nH]1)N(C=O)C(CNc1ccc(C(=O)N[C@@H](CCC(=O)O)C(=O)O)cc1)CN2 (some centres undefined) ?
Out: 0 CELLS/uL

In: Given CC(C)(Sc1cc(C(C)(C)C)c(O)c(C(C)(C)C)c1)Sc1cc(C(C)(C)C)c(O)c(C(C)(C)C)c1 , state its recorded ABSOLUTE EOSINOPHIL.
Out: 183 CELLS/uL

---

# Organism: Rattus norvegicus
# Measurement description: DrugMatrix - Regimen: Daily Repeat
# Assay type: toxicity, organism-based, Sprague-Dawley
# Parameters: regimen Daily Repeat, gender Male, age 6-8 weeks
# Condition summary: in vivo, po, 1500 mg/kg, 120 h, tissue Plasma, route oral GAVAGE, dose level High, time 5 day, vehicle .5 % CMC
Measure name: GLUCOSE (mg/dL)
Express it in mg/dL; write the number only.

In: Any idea what its GLUCOSE is? The molecule is CC(C)(Sc1cc(C(C)(C)C)c(O)c(C(C)(C)C)c1)Sc1cc(C(C)(C)C)c(O)c(C(C)(C)C)c1
Out: 158.67

In: May I ask what GLUCOSE has been recorded for C[C@@H](O)[C@H]1C(=O)N2C(C(=O)O)=C(S[C@@H]3CN[C@H](C(=O)N(C)C)C3)[C@H](C)[C@H]12 ?
Out: 155

In: Which value of GLUCOSE has been reported for Nc1nc2c(c(=O)[nH]1)N(C=O)C(CNc1ccc(C(=O)N[C@@H](CCC(=O)O)C(=O)O)cc1)CN2 (stereo not given in full) in the records?
Out: 147

In: Tell me the measured GLUCOSE of O=c1cc(-c2ccccc2)oc2ccc3ccccc3c12 , please.
Out: 186

In: Bench note: what GLUCOSE did CCOC(=O)[C@H](CCc1ccccc1)N[C@@H](C)C(=O)N1CCC[C@H]1C(=O)O show?
Out: 149

---

# Species: Rattus norvegicus
# Measurement description: DrugMatrix - Regimen: Daily Repeat
# Type: toxicity, organism-based, Sprague-Dawley
# Set-up: regimen Daily Repeat, gender Male, age 6-8 weeks
# Condition summary: in vivo, po, 0 mg/kg, 72 h, tissue Blood, route oral GAVAGE, dose level Control, time 3 day, vehicle 100 % SALINE
Measure name: ERYTHROCYTE COUNT (x10E6/uL)
Kindly provide the numeric value in x10E6/uL only, without the unit symbol.

In: Quick one: ERYTHROCYTE COUNT of Oc1ccccc1O ?
Out: 5.46

In: May I ask what ERYTHROCYTE COUNT has been recorded for CCCc1nn(C)c2c(=O)[nH]c(-c3cc(S(=O)(=O)N4CCN(C)CC4)ccc3OCC)nc12 ?
Out: 5.75

In: Reported ERYTHROCYTE COUNT for CC(=O)OCC(CCn1cnc2cnc(N)nc21)COC(C)=O : what is it?
Out: 5.75

In: So what does the record say about ERYTHROCYTE COUNT for Cc1cc(CC(=O)O)n(C)c1C(=O)c1ccc(Cl)cc1 [ZOMEPIRAC] ?
Out: 5.46
